studySystem: recombinant human cannabinoid 1 receptor (CB1) (Homo sapiens, UniProt P21554)
Sequence (P21554 whole entry): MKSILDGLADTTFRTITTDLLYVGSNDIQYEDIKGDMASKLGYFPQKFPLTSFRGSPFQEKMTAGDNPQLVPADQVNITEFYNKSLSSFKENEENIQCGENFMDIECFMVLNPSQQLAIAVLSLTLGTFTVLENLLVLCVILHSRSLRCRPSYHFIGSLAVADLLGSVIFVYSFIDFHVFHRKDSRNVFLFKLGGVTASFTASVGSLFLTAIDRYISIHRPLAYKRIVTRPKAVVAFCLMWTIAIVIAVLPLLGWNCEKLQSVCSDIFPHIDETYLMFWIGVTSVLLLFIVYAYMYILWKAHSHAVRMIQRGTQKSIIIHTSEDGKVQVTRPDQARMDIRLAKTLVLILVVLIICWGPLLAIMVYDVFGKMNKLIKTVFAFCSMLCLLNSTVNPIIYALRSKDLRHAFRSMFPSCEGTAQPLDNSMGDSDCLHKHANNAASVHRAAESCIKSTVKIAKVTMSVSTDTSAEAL
testDetails: In vitro determination of antagonism to CB1-receptor ([35S]GTPγS binding assay, CHO cell membranes)
Assay type: biochemical
experimentalContext: compound at 1 μM against agonist WIN 55,212-2 (3 nM to 3 μM); effect of Rimonabant (1 μM) defined as 100%
metric: Antagonism [%] (%)
Use % as the unit, but write only the number.

Solved cases (5 shown):
compound | studySystem | Antagonism [%], %
O=C(NC1CCCc2ccccc21)C1=NN(c2ccc(Cl)cc2Cl)C(c2ccc(Cl)cc2)C1 (stereo not drawn) [Example 76] | recombinant human cannabinoid 1 receptor (CB1) (Homo sapiens, UniProt P21554) | 57
CC1Cc2ccccc2N1NC(=O)C1=NN(c2ccc(Cl)cc2Cl)C(c2ccc(Cl)cc2)C1 (stereo not drawn) [Example 27] | recombinant human cannabinoid 1 receptor (CB1) (Homo sapiens, UniProt P21554) | 31
O=C(NC1CCCCC1)C1=NN(c2ccc(Cl)cc2Cl)C(c2ccc(Cl)cc2)C1 (stereo not drawn) [Example 41] | recombinant human cannabinoid 1 receptor (CB1) (Homo sapiens, UniProt P21554) | 69
Cl.O=C(NN1CCc2ccccc21)C1=NN(c2ccc(Cl)cc2Cl)C(c2ccc(Br)cc2)C1 (stereo not drawn) [Example 66] | recombinant human cannabinoid 1 receptor (CB1) (Homo sapiens, UniProt P21554) | 86
O=C(NN1CC2CCCC2C1)C1=NN(c2ccc(Cl)cc2Cl)C(c2ccc(Br)cc2)C1 (stereo not drawn) [Example 63] | recombinant human cannabinoid 1 receptor (CB1) (Homo sapiens, UniProt P21554) | 119

Turning now to a further compound:
Query: What does the record list as Antagonism [%] for O=C(NN1CCCCCC1)C1=NN(c2ccc(Cl)cc2Cl)C(c2ccc(Br)cc2)C1 (stereo not drawn) [Example 68] ?
Result: 98

====

studySystem: recombinant human cannabinoid 1 receptor (CB1) (Homo sapiens, UniProt P21554)
testDetails: In vitro determination of antagonism to CB1-receptor ([35S]GTPγS binding assay, CHO cell membranes)
Type: biochemical
experimentalContext: compound at 1 μM against agonist WIN 55,212-2 (3 nM to 3 μM); effect of Rimonabant (1 μM) defined as 100%
Each record here notes measured Antagonism [%].
Use % as the unit, but write only the number.

Solved cases (3 shown):
compound | Antagonism [%] [%]
CCCCCC(C)NC(=O)C1=NN(c2ccc(Cl)cc2Cl)C(c2ccc(Cl)cc2)C1 (stereo not drawn) | 68
CC1CCCCN1C(=O)C1=NN(c2ccc(Cl)cc2Cl)C(c2ccc(Cl)cc2)C1 (stereo not drawn) | 53
CC1CCCCC1NC(=O)C1=NN(c2ccc(Cl)cc2Cl)C(c2ccc(Cl)cc2)C1 (stereo not drawn) | 78

Query: What does the record list as Antagonism [%] for O=C(NC1CCCC1)C1=NN(c2ccc(Cl)cc2Cl)C(c2ccc(Cl)cc2)C1 (stereo not drawn) ?
Result: 81

Query: What does the record list as Antagonism [%] for COC(C)(C)[C@@H]1CCCN1NC(=O)C1=NN(c2ccc(Cl)cc2Cl)C(c2ccc(Cl)cc2)C1 (stereo partly drawn) ?
Result: 6

Query: What does the record list as Antagonism [%] for CC(C)N(C(=O)C1=NN(c2ccc(Cl)cc2Cl)C(c2ccc(Cl)cc2)C1)C1CCCCC1 (stereo not drawn) ?
Result: 30

====

studySystem: CB1 receptor (UniProt P20272)
Construct: other: compound at 10^−7 M; radioligand [3H]-CP55940; other: compound at 10^−8 M
testDetails: In-vitro determination of affinity to CB1/CB2-receptors (radioligand [3H]-CP55940 binding)
experimentalContext: compound at 10^−8 M
metric: Inhibition [%], 10^−8 M (%)
Use % as the unit, but write only the number.

compound | Inhibition [%], 10^−8 M / %
O=C(NC1CCCCCC1)C1=NN(c2ccc(Cl)cc2Cl)[C@H](c2ccc(Cl)cc2)C1 [Example 186] | 3.2
CN1CCN(C(=O)C2=NN(c3ccc(Cl)cc3Cl)C(c3ccc(Cl)cc3)C2)CC1.Cl (stereo not shown) [Example 195] | 4.7
O=C(NN1CCOCC1)C1=NN(c2ccc(Cl)cc2Cl)C(c2ccc(Cl)cc2)C1 (stereo not shown) [Example 8] | −8.2
Cl.O=C(NN1CCCCC1)C1=NN(c2ccc(Cl)cc2Cl)C(c2ccc(O)cc2)C1 (stereo not shown) [Example 172] | 5.6
COc1ccc(C2CC(C(=O)NN3CCCCCC3)=NN2c2ccc(Cl)cc2Cl)cc1 (stereo not shown) [Example 114A] | 41.4
CN(C)CCCNC(=O)C1=NN(c2ccc(Cl)cc2Cl)C(c2ccc(Cl)cc2)C1 (stereo not shown) [Example 73] | 15.7

Query: What does the record list as Inhibition [%], 10^−8 M for Cl.O=C(NN1CCCCCCC1)C1=NN(c2ccc(Cl)cc2Cl)[C@@H](c2ccc(Cl)cc2)C1 [Example 176] ?
Result: 29.5

Query: What does the record list as Inhibition [%], 10^−8 M for COc1ccc(C2CC(C(=O)O)=NN2c2ccc(Cl)cc2Cl)cc1 (stereo not shown) [Example 127] ?
Result: 7.4

Query: What does the record list as Inhibition [%], 10^−8 M for CCCCNC(=O)C1=NN(c2ccc(Cl)cc2Cl)C(c2ccc(Cl)cc2)C1 (stereo not shown) [Example 72] ?
Result: −10.2

Query: What does the record list as Inhibition [%], 10^−8 M for COc1ccc(C2CC(C(=O)NN3CCCCCCC3)=NN2c2ccc(Cl)cc2Cl)cc1 (stereo not shown) [Example 148] ?
Result: 56.1

Query: What does the record list as Inhibition [%], 10^−8 M for O=C(NN1CCCCCCC1)C1=NN(c2ccc(Cl)cc2Cl)C(c2ccc(F)cc2)C1 (stereo not shown) [Example 147] ?
Result: 24.0

Query: What does the record list as Inhibition [%], 10^−8 M for Cl.O=C(NN1CCCCC1)C1=NN(c2ccc(Cl)cc2Cl)C(c2ccc(F)cc2)C1 (stereo not shown) [Example 135] ?
Result: 40.2

Query: What does the record list as Inhibition [%], 10^−8 M for O=C(NC1CCCCC1)C1=NN(c2ccc(Cl)cc2Cl)C(c2ccc(Cl)cc2)C1 (stereo not shown) [Example 41] ?
Result: −5.2

====

studySystem: CB1 receptor (UniProt P20272)
Construct: other: compound at 10^−7 M; radioligand [3H]-CP55940; other: compound at 10^−8 M
testDetails: In-vitro determination of affinity to CB1/CB2-receptors (radioligand [3H]-CP55940 binding)
experimentalContext: compound at 10^−8 M
metric: Inhibition [%], 10^−8 M (%)
Use % as the unit, but write only the number.

Solved cases (5 shown):
molecule | studySystem | metric | testValue
CCOC(=O)C1=NN(c2ccc(Cl)cc2Cl)C(c2ccc(Cl)cc2)C1 (centres unmarked) [Example 120] | CB1 receptor (UniProt P20272) | Inhibition [%], 10^−8 M | −4.1
O=C(NN1CCCCCC1)C1=NN(c2ccc(Cl)cc2Cl)C(c2ccc(F)cc2)C1 (centres unmarked) [Example 96] | CB1 receptor (UniProt P20272) | Inhibition [%], 10^−8 M | 43.3
Cl.O=C(NN1CCCCCC1)C1=NN(c2ccc(Cl)cc2Cl)[C@H](c2ccc(Cl)cc2)C1 [Example 183] | CB1 receptor (UniProt P20272) | Inhibition [%], 10^−8 M | 3.2
COc1ccc(C2CC(C(=O)NN3CC4CCCC4C3)=NN2c2ccc(Cl)cc2Cl)cc1.Cl (centres unmarked) [Example 109A] | CB1 receptor (UniProt P20272) | Inhibition [%], 10^−8 M | 33.5
Cl.O=C(NN1CCCCCCC1)C1=NN(c2ccc(Cl)cc2Cl)C(c2ccc(Cl)cc2)C1 (centres unmarked) [Example 145] | CB1 receptor (UniProt P20272) | Inhibition [%], 10^−8 M | 12.3

Query: What does the record list as Inhibition [%], 10^−8 M for O=C(NC1CCCCCC1)C1=NN(c2ccc(Cl)cc2Cl)C(c2ccc(F)cc2)C1 (centres unmarked) [Example 131] ?
Result: 42.9

Query: What does the record list as Inhibition [%], 10^−8 M for O=C(NN1CCCCCC1)C1=NN(c2ccc(Cl)cc2Cl)[C@H](c2ccc(Cl)cc2)C1 [Example 185] ?
Result: −11.6

Query: What does the record list as Inhibition [%], 10^−8 M for O=C(NCC1CCCCC1)C1=NN(c2ccc(Cl)cc2Cl)C(c2ccc(Cl)cc2)C1 (centres unmarked) [Example 32] ?
Result: 12

====

studySystem: recombinant human cannabinoid 1 receptor (CB1) (Homo sapiens, UniProt P21554)
testDetails: In vitro determination of antagonism to CB1-receptor ([35S]GTPγS binding assay, CHO cell membranes)
Assay type: biochemical
experimentalContext: compound at 1 μM against agonist WIN 55,212-2 (3 nM to 3 μM); effect of Rimonabant (1 μM) defined as 100%
The label Condition met is reserved for Antagonism [%] strictly under 60%; Condition not met covers values equal to or above it.

See these solved cases before continuing.
compound | class
O=C(C1=NN(c2ccc(Cl)cc2Cl)C(c2ccc(Cl)cc2)C1)N1Cc2ccccc2C1 (centres unmarked) [Example 39] | Condition not met
O=C(O)C1=NN(c2ccc(Cl)cc2Cl)C(c2ccc(F)cc2)C1 (centres unmarked) [Example 126] | Condition met
O=C(C1=NN(c2ccc(Cl)cc2Cl)C(c2ccc(Cl)cc2)C1)N1CCN(C2CCCCC2)CC1 (centres unmarked) [Example 21] | Condition not met

Alright, here's another compound for you.
Query: Is 60% strictly greater than the compound's reported Antagonism [%]? compound: O=C(NN1CCOCC1)C1=NN(c2ccc(Cl)cc2Cl)C(c2ccc(Br)cc2)C1 (centres unmarked) [Example 67]
Result: Condition met
